- protocol: qHTS for inhibitors of Vif-A3G interactions: Cherry picks; also: nearly all actives have a fitted effect of over 80% in size
- condition.label: HeLa A3G-eYFP + Vif (tagged APOBEC3G with the HIV-1 protein that degrades it), 24 h; eYFP fluorescence increase; series mostly up to 36.9 µM
Hit rate of the full screen: of about 2,100 compounds, about 650 (31%) were called active. Not shown: some 16% with an inconclusive outcome. Calls follow the shape of the dose curve; as a rule, active = well fitted inhibition curve with a large enough effect; inconclusive = small, poorly fitted or top-dose-only effect; inactive = flat fitted curve, though single readings scatter. The list shows a part of the results.
Write down one outcome, taken from active, inactive

{"molecule": "Cn1cccc1/C=C1\\SC(=Nc2ccccc2)NC1=O", "group": "inactive"}
{"molecule": "CCN(CC)C(=O)Cn1c(=O)n(-c2ccccc2)c(=O)c2c3c(sc21)CCC3", "group": "inactive"}
{"molecule": "COc1ccc(-n2c(O)c(/C=N/NS(=O)(=O)c3cccc([N+](=O)[O-])c3)c3ccccc3c2=O)cc1OC", "group": "active"}

Query: # lookup: test call for COc1ccc(-n2cc3c(-c4cccc(Br)c4)nnc(C)c3n2)cc1
Reply: inactive

Query: # lookup: test call for CC(=O)c1cc(NC(=O)c2ccc(Cl)cc2)c(=O)oc1/C=C/N(C)C
Reply: active

Query: # lookup: test call for N#CC1=C(N)Oc2ccc3ccc(O)cc3c2C1c1ccsc1 (stereo unspecified)
Reply: inactive

Query: # lookup: test call for Cc1ccc(C(=O)NC2c3ccccc3-c3ccccc32)cc1
Reply: inactive

Query: # lookup: test call for COc1cc(C2c3cc4c(cc3OC(C)(N3CCCC3)C2C)OCO4)cc(OC)c1OC (stereo unspecified)
Reply: inactive

Query: # lookup: test call for CC[N+](C)(C)c1ccc(/C=C/c2ccncc2)cc1
Reply: active

Query: # lookup: test call for CCn1c(O)c(/C=N/NC(=O)c2ccncc2)c(=O)n(CC)c1=S
Reply: inactive

Query: # lookup: test call for O=Nc1ccc(O)c2ncccc12
Reply: inactive

Query: # lookup: test call for Oc1sc(C=Nc2ccc(F)cc2)c2ccccc12
Reply: active

Query: # lookup: test call for COC(=O)C1=C(C)N(Cc2ccco2)C(=O)/C1=C\c1ccc([N+](=O)[O-])cc1
Reply: inactive

Query: # lookup: test call for CCC[N+](C)(C)c1ccc(/C=C/c2ccncc2)cc1
Reply: active

Query: # lookup: test call for COc1ccc(-n2nnnc2-c2cccc(OC)c2)cc1
Reply: inactive

Query: # lookup: test call for Cn1c(=O)c2cc(NC(=O)NCc3ccc(F)cc3)ccc2n1C/C=C/c1ccccc1
Reply: inactive

Query: # lookup: test call for Cc1ccc(SC2=C(Sc3ccc(C)cc3)C(=O)c3ccccc3C2=O)cc1
Reply: active
